assay: chemical genetic growth profiling, strain panel (AID 1159580); conditions: S. cerevisiae deletion strains, growth OD, locus YDR195W, strain ref2
About 2,000 (36%) of roughly 5,500 compounds were called active. Another 18% or so got no clear call; they are omitted. Rule as the data show it: active = normalized growth mostly below about 0.91 (no sharp cut-off); inconclusive = no clear call, values can overlap the other calls; inactive = mostly above about 0.92. Some of the results follow.
Hello, when you answer, please use one of the following outcomes: 1 = active, 0 = inactive

Some entries whose results are on file:
compound	classAssignment
CN(C)CCC=C1c2ccccc2CCc2ccccc21	0
COc1cc2cc[n+]3cc4c(OC)c(OC)ccc4cc3c2cc1OC	0
CNCCC=C1c2ccccc2CCc2ccccc21	0
CCn1cc(C(=O)O)c(=O)c2cc(F)c(N3CCNCC3)cc21	0
O=C1CCc2cc(OCCCCc3nnnn3C3CCCCC3)ccc2N1	0

Enquiry: Status in this test for CC1(C)O[C@@H]2CC3C4CCC5=CC(=O)C=C[C@]5(C)[C@@]4(F)[C@@H](O)C[C@]3(C)[C@]2(C(=O)CO)O1 (stereo not given in full) ?
Return: 0

Enquiry: Dear colleague, could you share the recorded outcome for CC[N+]1(C)CCCC(OC(=O)C(O)(c2ccccc2)c2ccccc2)C1 (stereo not given) when you have a moment?
Return: 0

Enquiry: GET /call?item= C=C1C(N)CC2CC1C2(C)C (stereo not given) returns the recorded outcome of this test.
Return: 0

Enquiry: Recorded test outcome, item CC(=O)Oc1c(-c2ccccc2)oc2c(CC=C(C)C)c3c(c(OC(C)=O)c2c1=O)C=CC(C)(C)O3
Return: 0

Enquiry: I would be grateful if you could indicate the recorded call for C/C(=C\C(=O)OCCCCCCCCC(=O)O)C[C@@H]1OC[C@H](C[C@@H]2O[C@H]2[C@@H](C)[C@H](C)O)[C@@H](O)[C@H]1O .
Return: 0

Enquiry: Recorded call for CC1=CCc2c(cc3oc(C)cc(=O)c3c2O)OC1 ?
Return: 1

Enquiry: Please share the test call associated with CCN1CCN(c2cc3c(cc2F)c(=O)c(C(=O)O)cn3C2CC2)CC1 .
Return: 0

Enquiry: Which outcome was assigned to CC(=O)[C@H]1CCC2C3CC=C4C[C@@H](OC(=O)CCC(=O)O)CC[C@]4(C)C3CC[C@@]21C (stereo not given in full) in this test?
Return: 0

Enquiry: Can you look up the reported call for COc1cc([C@@H]2c3cc4c(cc3C(O[C@@H]3O[C@@H]5CO[C@@H](c6cccs6)OC5[C@H](O)[C@H]3O)C3COC(=O)[C@@H]32)OCO4)cc(OC)c1O (stereo not given in full) for me?
Return: 0

Enquiry: Record request — test call for NCC(=O)CCC(=O)O
Return: 0

Enquiry: What did this assay record as the result for O=C(/C=C/c1ccccc1)c1ccc(O)cc1 ?
Return: 1

Enquiry: Dear all, I need the recorded test outcome for CC(=O)Oc1ccc(-c2cc(=O)c3c(OC(C)=O)cc(OC(C)=O)cc3o2)cc1 , thank you.
Return: 0

----------
assay: chemical genetic growth profiling, strain panel (AID 1159580); settings: S. cerevisiae deletion strains, growth OD, locus YHR027C, strain rpn1
The campaign covered roughly 5,500 compounds. About 2,000 (36%) were called active. Not shown: some 18% with an inconclusive outcome. No stated cut-off is given here; in the data, active means normalized growth mostly below about 0.91 (no sharp cut-off); inconclusive means no clear call, values can overlap the other calls; inactive means mostly above about 0.92. The list shows a part of the results.
Reply using exactly one outcome from YES = active, NO = inactive

Answered examples (5):
compound	classAssignment
O=C(O)/C=C(\CC(=O)O)C(=O)O	NO
Cn1nnnc1SCC1=C(C(=O)O)N2C(=O)C(NC(=O)C(O)c3ccccc3)C2SC1 (stereo not drawn)	NO
O=c1c2ccccc2oc2ccccc12	NO
COC(=O)C1=C(C)NC(C)=C(C(=O)OCC(C)C)C1c1ccccc1[N+](=O)[O-] (stereo not drawn)	YES
COc1ccc2cc3[n+](cc2c1OC)CCc1cc2c(cc1-3)OCO2	NO

Enquiry: Which result was noted for this compound in the test: COc1c2c(cc3c1OCO3)CC[N+](C)=C2
Return: NO

Enquiry: Please let me know the test result on file for CCC(/C=C/[C@@H](C)[C@H]1CCC2C3CC=C4C[C@@H](O)CC[C@]4(C)C3CC[C@@]21C)C(C)C (stereo partly drawn) .
Return: NO

Enquiry: Record request — test call for Nc1nc(N)c2nc(-c3ccccc3)c(N)nc2n1
Return: NO

Enquiry: // return assay outcome for O=c1[nH]c2cc(Cl)c(Cl)cc2[nH]c1=O
Return: NO

Enquiry: Tell me the assay call for O=c1c(-c2ccc(O)cc2)coc2cc(O)cc(O)c12 please.
Return: NO

Enquiry: Given CCC(CCC(C)[C@H]1CCC2C3CC=C4C[C@@H](O)CC[C@]4(C)C3CC[C@@]21C)C(C)C (stereo partly drawn) , state the outcome it received in this test.
Return: NO

Enquiry: Would you mind telling me which call this test gave CCCCC1C(=O)N(c2ccccc2)N(c2ccccc2)C1=O ?
Return: NO

Enquiry: Dear all, I need the recorded test outcome for CCn1cc(C(=O)O)c(=O)c2cc(F)c(N3CCNCC3)cc21 , thank you.
Return: NO

Enquiry: Recorded test call requested for COC(=O)C1=C(C)NC(C)=C(C(=O)OCCN(C)Cc2ccccc2)C1c1cccc([N+](=O)[O-])c1 (stereo not drawn)
Return: NO

Enquiry: Dear all, I need the recorded test outcome for COc1cc([C@@H]2c3cc4c(cc3[C@H](OC(C)=O)[C@H]3COC(=O)[C@H]23)OCO4)cc(OC)c1OC , thank you.
Return: NO

Enquiry: Test call for this compound, please: CC(=O)Oc1c(-c2ccccc2)oc2c(CC=C(C)C)c3c(c(OC(C)=O)c2c1=O)C=CC(C)(C)O3
Return: NO

Enquiry: For S=c1ccss1 , which call appears in the assay record?
Return: NO

Enquiry: For CCCCCCCCCc1ccc(O)cc1 , which call appears in the assay record?
Return: YES

Enquiry: What outcome does the record of this test show for CCCCCCc1ccc(O)cc1O ?
Return: NO

Enquiry: Please share the test call associated with CC(=O)OCC(=O)[C@H]1CCC2C3CC=C4C[C@@H](O)CC[C@]4(C)C3CC[C@@]21C (stereo partly drawn) .
Return: NO

Enquiry: Please state the recorded outcome for this compound: C=CCCCCCCCCCCCC(O)CC(O)CO (stereo not drawn)
Return: NO

Enquiry: Name the outcome recorded for Cc1cc2cc3c(C)cc(=O)oc3c(C)c2o1 in the assay.
Return: NO

Enquiry: Kindly provide the recorded test outcome for the following compound: C=C1C2CC[C@@]3(C)[C@H](c4ccoc4)OC(=O)C[C@]13O[C@H]1CC(=O)C(C)(C)[C@H](C(O)C(=O)OC)[C@@]21C (stereo partly drawn)
Return: NO

Enquiry: Per the assay record, what outcome was assigned to Nc1nnc(-c2cccc(Cl)c2Cl)c(N)n1 ?
Return: NO

Data credit: PubChem BioAssay AID1159580
